Tested on: RXF-631 renal
Experiment: NCI tumour cell line growth inhibition, 48 h
measure.name: TGI

These solved cases illustrate the format of a correct answer.
CCCS(=O)c1nc(COC(=O)NC)c(COC(=O)NC)n1C (stereo unspecified) :: > 100 µM
Cc1ccc(C)c(NC(=O)C(=O)C2C(=O)N(c3ccccc3)N=C2N)c1 (stereo unspecified) :: > 100 µM
COc1ccc(/C=N/N=C(\N)NO)cc1F :: > 100 µM

Tell me the measured TGI of Nn1c(-c2cccc(Cl)c2)nc2ccccc2c1=O , please.
> 100 µM

Follow-up entry: COc1cc([C@@H]2OC(=O)C3C2C(=O)O[C@H]3c2ccc(O)c(OC)c2)ccc1O (stereo partly specified)
> 100 µM

And what about the molecule O=[N+]([O-])c1ccc(C2SCc3nc4ccccc4n32)cc1 (stereo unspecified) ?
> 100 µM
